Numbers sourced from the supplement of paper PMC7125110.

B1: glmS ribozyme (parent)
chain: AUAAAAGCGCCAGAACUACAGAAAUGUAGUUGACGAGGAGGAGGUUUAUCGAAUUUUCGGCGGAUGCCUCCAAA

Variants of: B1
Experiment: KM; higher = weaker cofactor use; RNA array
Conditions: with glucosamine-6-phosphate
Quick reference: KM of the listed items.
Write the value in µM as a bare number.

As a guide, the following entries are already answered.
INSERT INTO results (query_sequence, unit_descriptor, numeric_result) VALUES
  ('AUAAAAGCGCCAGAACUACAGAAAUGUAGUUGACGAGGAGGAGCUUUAUCGAAUUUUCGGCGGAUGUCUCCAAA [G44C C67U]', 'µM', 1700),
  ('AUAAAAGCGCCUGAACUACAGAAAUGUAGUUGACGAGGACGAGGUUUAUCGAAUUUUCGGCGGAUGCCUCCAAA [A12U G40C]', 'µM', 1420),
  ('AUAAAAGCGCCACAACUACAGAAAUGUAGUCUACGAGGAGGAGGUUUAUCGAAUUUUCGGCGGAGGUCUCCAAA [G13C U31C G32U U65G C67U]', 'µM', 3040),
  ('AUAAAAGCGCCAGAACUACAGAAAUGUAGUUGACGAGGAGGAGGUUUAUCGACUCUUCGGCGGAUGCCUCCAAA [A53C U55C]', 'µM', 1150),
  ('AUAAAAGCGCCAGACCUACAGAAAUGUAGUUGACGAGGAGGAGGUUUAUCGACUUUUCGGCGGAUGCCUCCAAA [A15C A53C]', 'µM', 2900),
  ('AUAAAAGCGCCAGAACUACAGAAAUGUAAUGGACGAGGAGGAGGUUUAUCGAAUUUUCGGCGGAUGCCUCCAAA [G29A U31G]', 'µM', 1380),
  ('AUAAAAGCGCCAGAACUACAGAAAUGUAGUUGACGAGGAGGAGGUUUAUUGAAUUUUCGGCGGAUGCCUCCAAA [C50U]', 'µM', 3300),
  ('AUAAAAGCGCCACAACUACAGAAAUGUAGUUGACGAGGAGGAGGUUUAUCGAAUUCUCGGCGGAUGCCUCCAAA [G13C U56C]', 'µM', 1100),
  ('AUAAAAGCGCCAUAACUACAGAAAUGUAGUUGACGAGGAGGAGGUUUAUCGAAUUUUCGGCGGAGGCCUCCAAA [G13U U65G]', 'µM', 3750),
  ('AUAAAAGCGCCAGAACUACAGAAAUGUAGUUGACGAGGAGGAGGUUUAGCGAAUGUUCGGCGGAUGCCUCCAAA [U49G U55G]', 'µM', 1400);

Please turn your attention to the following entry.
Please give measured KM of the following entry: AUAAAAGCGCCAGAACUACAGAAAUGUAGUAGACGAGGACGAGGUUUAUCGAAUUUUCGGCGGAUGCCUCCAAA [U31A G40C]
1410
